test system: UACC-62; test: NCI tumour cell line growth inhibition, 48 h
Active and inactive are the calls of the source. No stated cut-off is given here; in the data, active = GI50 up to about 1.1 µM and inactive = higher.
Labels: active, inactive

- molecule: "C/C(=N\\n1c(Cc2ccccc2)n[nH]c1=O)c1ccc([N+](=O)[O-])cc1"
  cat: "inactive"
- molecule: "C=CCn1c(=O)ccn(/C(=C/C(=O)OCC)C(=O)OCC)c1=O"
  cat: "inactive"
- molecule: "O=S(=O)(/N=c1\\[nH]c(-c2cc(O)c(O)c(O)c2)cs1)c1ccc(Cl)cc1Cl"
  cat: "inactive"
- molecule: "C=C1CC2CC[C@@]34C[C@H]5O[C@@H]6C(O[C@H]7CC[C@H](CC(=O)OC8[C@H](C)C9OC%10C[C@]%11(C[C@@H]%12O[C@]%13(C[C@H](C)[C@@H]%14O[C@H]([C@H](O)C[C@H](O)CO)C[C@@H]%14O%13)C[C@H](C)[C@@H]%12O%11)OC%10CC9O[C@H]8C[C@H]8O[C@H](CC[C@@H]1O2)C[C@@H](C)C8=C)O[C@H]7[C@@H]6O3)[C@@H]5O4 (some centres not stated)"
  cat: "active"
- molecule: "O=C1CC[C@@]2(O)[C@H]3Cc4ccc(-c5cccc(O)c5)c5c4[C@@]2(CCN3CC2CC2)[C@H]1O5"
  cat: "inactive"
- molecule: "COP(=O)(CC(=O)C1OC(C)(C)OC1C(O)COCc1ccccc1)OC (configuration not stated)"
  cat: "inactive"
- molecule: "CCC1C2C=CC(CC2)N1S(=O)(=O)c1ccc(C)cc1 (configuration not stated)"
  cat: "inactive"
- molecule: "CO/C(=N\\N=C\\c1ccc(Cl)cc1)c1ccncc1"
  cat: "inactive"
- molecule: "COc1ccc(C#CCC(OC2OC(CO)C(O)C(O)C2O)C(O)c2ccc(OC)c(OC)c2)cc1OC (configuration not stated)"
  cat: "inactive"
- molecule: "COc1ccc(-c2oc3ccccc3c(=O)c2O)cc1OC [3-HYDROXY-3',4'-DIMETHOXYFLAVONE]"
  cat: "inactive"
- molecule: "Fc1ccccc1C1SCC2=Nc3ccccc3CN21 (configuration not stated)"
  cat: "inactive"
- molecule: "O=[N+]([O-])C(/C=N/Nc1ccccc1)/C=N/Nc1ccccc1"
  cat: "inactive"
- molecule: "COC(=O)c1ccc(/C=N/c2cc(C)nn2-c2ccccc2)cc1"
  cat: "inactive"
- molecule: "C/C=C/[C@H]1O[C@@](OC)([C@@H](C)[C@H](O)[C@H](C)[C@H]2OC(=O)/C(OC)=C/C(C)=C/[C@@H](C)[C@@H](O)[C@@H](C)[C@@H](O)[C@H](C)C/C(C)=C/C=C/[C@@H]2OC)CC(OC2CC(O)C(OC(N)=O)C(C)O2)[C@@H]1C (some centres not stated)"
  cat: "active"
- molecule: "CCOC(=O)C1(N)CCc2[nH][nH]c(=O)c2C1 (configuration not stated)"
  cat: "inactive"
- molecule: "N#Cc1c2c(c(Nc3ccc(F)cc3)n3c1nc1ccccc13)CCCC2"
  cat: "inactive"
- molecule: "O=C1NC(=S)NC(=O)C1=Cc1ccc(-c2ccccc2)cc1"
  cat: "inactive"
- molecule: "Oc1ccc(-c2nc3cc(F)ccc3s2)cc1"
  cat: "inactive"
- molecule: "CC/C=C\\C/C=C\\C/C=C\\CCCCCCCC(=O)OCC"
  cat: "inactive"
- molecule: "Cc1cccc(/C=N/NC(=S)NC2CCCCC2)n1"
  cat: "inactive"
- molecule: "COc1ccc(C)cc1N1C(=O)C2ON(Cc3ccc(CC(N)=O)cc3)C(c3c4ccccc4c(Cl)c4ccccc34)C2C1=O (configuration not stated)"
  cat: "inactive"
- molecule: "O=[N+]([O-])c1cc(C(F)(F)F)cc2c1SC1=Nc3ccccc3CN12"
  cat: "inactive"
- molecule: "Cc1n[nH]c(=O)n1N=C(c1ccccc1)c1ccccc1"
  cat: "inactive"
- molecule: "Cc1ccc2c(CC(=O)O)cc(=O)oc2c1"
  cat: "inactive"
- molecule: "CC(O)CN1c2ccccc2Sc2ccc(Cl)cc21 (configuration not stated)"
  cat: "inactive"
- molecule: "CCOC(=O)/C1=C(\\C)N(c2ccc(C)cc2)C(=O)c2ccccc2C(=O)c2c(O)ccc(O)c21"
  cat: "inactive"
- molecule: "CCc1cc(Cc2cc(CC)c(NC(=O)C(=O)CC(=O)c3sc(-c4cccnc4)nc3C)c(CC)c2)cc(CC)c1NC(=O)C(=O)CC(=O)c1sc(-c2cccnc2)nc1C"
  cat: "inactive"
